# Percentage of release efficiency (%) Breast cancer tissue (SKBR3) per record follows
# assay.info: Tumor homogenate activation efficiency, breast cancer tissue (Examples 28, 37)
# Format: in vitro ADME
# measurement.context: pH 5.0, 37° C., 2 h; Table 5
Where a SMILES comes first, the peptide text is derived from it. The star is where a group is joined. NEt(2-(20S-CPT-7-yl)ethyl) = CCN(CCc1c2c(nc3ccccc13)-c1cc3c(c(=O)n1C2)COC(=O)[C@]3(O)CC)*; Belotecan = CC[C@@]1(O)C(=O)OCc2c1cc1n(c2=O)Cc2c-1nc1ccccc1c2CCN(C(C)C)*; X6 = CCCCCN(CCc1c2c(nc3ccccc13)-c1cc3c(c(=O)n1C2)COC(=O)[C@]3(O)CC)*; X8 = CC[C@@]1(O)C(=O)OCc2c1cc1n(c2=O)Cc2c-1nc1ccccc1c2CCN(C1CCCC1)*; X1 = CC[C@@]1(O)C(=O)OCc2c1cc1n(c2=O)Cc2c-1nc1ccccc1c2CCN(C1CCC1)*; X4 = CCCN(CCc1c2c(nc3ccccc13)-c1cc3c(c(=O)n1C2)COC(=O)[C@]3(O)CC)*; X3 = CC[C@@]1(O)C(=O)OCc2c1cc1n(c2=O)Cc2c-1nc1ccccc1c2CCN(C1CC1)*; X7 = CC[C@@]1(O)C(=O)OCc2c1cc1n(c2=O)Cc2c-1nc1ccccc1c2CCN(C)*; Propanoyl(3-maleimido) = O=C1C=CC(=O)N1CCC(=O)*; PEG6 = NCCOCCOCCOCCOCCOCCOCCC(=O)O
readout.type: Percentage of release efficiency (%) Breast cancer tissue (SKBR3)

molecule="CC[C@@]1(O)C(=O)OCc2c1cc1n(c2=O)Cc2c-1nc1ccccc1c2CCN(C(=O)CNC(=O)[C@H](CC(N)=O)NC(=O)[C@H](C)NC(=O)[C@H](C)NC(=O)CCOCCOCCOCCOCCOCCOCCNC(=O)CCN1C(=O)C=CC1=O)C1CCCC1 [MI-6PEG-AANG-D8] ({Propanoyl(3-maleimido)-PEG6}-AANG-X8)" unit_annotation=% meas_value=70.9
molecule="CC[C@@]1(O)C(=O)OCc2c1cc1n(c2=O)Cc2c-1nc1ccccc1c2CCN(C(=O)CNC(=O)[C@H](Cc1ccccc1)NC(=O)CNC(=O)CNC(=O)CCOCCOCCOCCOCCOCCOCCNC(=O)CCN1C(=O)C=CC1=O)C1CC1 [MI-6PEG-GGFG-D6] ({Propanoyl(3-maleimido)-PEG6}-GGFG-X3)" unit_annotation=% meas_value=67.1
molecule="CC[C@@]1(O)C(=O)OCc2c1cc1n(c2=O)Cc2c-1nc1ccccc1c2CCN(C(=O)CNC(=O)[C@H](Cc1ccccc1)NC(=O)CNC(=O)CNC(=O)CCOCCOCCOCCOCCOCCOCCNC(=O)CCN1C(=O)C=CC1=O)C1CCCC1 [MI-6PEG-GGFG-D8] ({Propanoyl(3-maleimido)-PEG6}-GGFG-X8)" unit_annotation=% meas_value=81.2
molecule="CC[C@@]1(O)C(=O)OCc2c1cc1n(c2=O)Cc2c-1nc1ccccc1c2CCN(C(=O)CNC(=O)[C@H](CC(N)=O)NC(=O)[C@H](C)NC(=O)[C@H](C)NC(=O)CCOCCOCCOCCOCCOCCOCCNC(=O)CCN1C(=O)C=CC1=O)C1CC1 [MI-6PEG-AANG-D6] ({Propanoyl(3-maleimido)-PEG6}-AANG-X3)" unit_annotation=% meas_value=82.1
molecule="CCN(CCc1c2c(nc3ccccc13)-c1cc3c(c(=O)n1C2)COC(=O)[C@]3(O)CC)C(=O)CNC(=O)[C@H](CCCCN)NC(=O)[C@H](C)NC(=O)[C@H](C)NC(=O)CCOCCOCCOCCOCCOCCOCCNC(=O)CCN1C(=O)C=CC1=O [MI-6PEG-AAKG-D2] ({Propanoyl(3-maleimido)-PEG6}-AAKG-{NEt(2-(20S-CPT-7-yl)ethyl)})" unit_annotation=% meas_value=69.5
molecule="CC[C@@]1(O)C(=O)OCc2c1cc1n(c2=O)Cc2c-1nc1ccccc1c2CCN(C)C(=O)CNC(=O)[C@H](Cc1ccccc1)NC(=O)CNC(=O)CNC(=O)CCOCCOCCOCCOCCOCCOCCNC(=O)CCN1C(=O)C=CC1=O [MI-6PEG-GGFG-D1] ({Propanoyl(3-maleimido)-PEG6}-GGFG-X7)" unit_annotation=% meas_value=74.8
molecule="CC[C@@]1(O)C(=O)OCc2c1cc1n(c2=O)Cc2c-1nc1ccccc1c2CCN(C(=O)CNC(=O)[C@H](CC(N)=O)NC(=O)[C@H](C)NC(=O)[C@H](C)NC(=O)CCOCCOCCOCCOCCOCCOCCNC(=O)CCN1C(=O)C=CC1=O)C1CCC1 [MI-6PEG-AANG-D7] ({Propanoyl(3-maleimido)-PEG6}-AANG-X1)" unit_annotation=% meas_value=78.8
molecule="CCCN(CCc1c2c(nc3ccccc13)-c1cc3c(c(=O)n1C2)COC(=O)[C@]3(O)CC)C(=O)CNC(=O)[C@H](CC(N)=O)NC(=O)[C@H](C)NC(=O)[C@H](C)NC(=O)CCOCCOCCOCCOCCOCCOCCNC(=O)CCN1C(=O)C=CC1=O [MI-6PEG-AANG-D3] ({Propanoyl(3-maleimido)-PEG6}-AANG-X4)" unit_annotation=% meas_value=84.6
molecule="CC[C@@]1(O)C(=O)OCc2c1cc1n(c2=O)Cc2c-1nc1ccccc1c2CCN(C(=O)CNC(=O)[C@H](Cc1ccccc1)NC(=O)CNC(=O)CNC(=O)CCOCCOCCOCCOCCOCCOCCNC(=O)CCN1C(=O)C=CC1=O)C(C)C [MI-6PEG-GGFG-Belotecan] ({Propanoyl(3-maleimido)-PEG6}-GGFG-Belotecan)" unit_annotation=% meas_value=67.7
molecule="CCN(CCc1c2c(nc3ccccc13)-c1cc3c(c(=O)n1C2)COC(=O)[C@]3(O)CC)C(=O)CNC(=O)[C@H](CC(N)=O)NC(=O)[C@H](C)NC(=O)CNC(=O)CCOCCOCCOCCOCCOCCOCCNC(=O)CCN1C(=O)C=CC1=O [MI-6PEG-GANG-D2] ({Propanoyl(3-maleimido)-PEG6}-GANG-{NEt(2-(20S-CPT-7-yl)ethyl)})" unit_annotation=% meas_value=68.8
molecule=CC[C@@]1(O)C(=O)OCC2=C1C=C1c3nc4ccccc4c(CCN(C(=O)OCc4ccc(NC(=O)[C@H](CC(N)=O)NC(=O)[C@H](C)NC(=O)[C@H](C)NC(=O)CCOCCOCCOCCOCCOCCOCCNC(=O)CCN5C(=O)C=CC5=O)cc4)C(C)C)c3CN1C2 unit_annotation=% meas_value=69.4
molecule="CC[C@@]1(O)C(=O)OCc2c1cc1n(c2=O)Cc2c-1nc1ccccc1c2CCN(C(=O)CNC(=O)[C@H](Cc1ccccc1)NC(=O)CNC(=O)CNC(=O)CCOCCOCCOCCOCCOCCOCCNC(=O)CCN1C(=O)C=CC1=O)C1CCC1 [MI-6PEG-GGFG-D7] ({Propanoyl(3-maleimido)-PEG6}-GGFG-X1)" unit_annotation=% meas_value=72.7
molecule="CCCCCN(CCc1c2c(nc3ccccc13)-c1cc3c(c(=O)n1C2)COC(=O)[C@]3(O)CC)C(=O)CNC(=O)[C@H](CC(N)=O)NC(=O)[C@H](C)NC(=O)[C@H](C)NC(=O)CCOCCOCCOCCOCCOCCOCCNC(=O)CCN1C(=O)C=CC1=O [MI-6PEG-AANG-D4] ({Propanoyl(3-maleimido)-PEG6}-AANG-X6)" unit_annotation=% meas_value=80.7

====

# assay.info: MTD determination in mice (Examples 27, 36, 44)
# Type: in vivo
# measurement.context: mice, monitored for 14 d; Table 9
# MTD per record follows
readout.type: MTD (mg/kg)

molecule=CCCCNCCc1c2c(nc3ccccc13)-c1cc3c(c(=O)n1C2)COC(=O)[C@]3(O)CC meas_value=30
molecule=CCCNCCc1c2c(nc3ccccc13)-c1cc3c(c(=O)n1C2)COC(=O)[C@]3(O)CC meas_value=25
molecule=CC[C@@]1(O)C(=O)OCc2c1cc1n(c2=O)Cc2c-1nc1ccccc1c2CCNC1CCC1 meas_value=15
molecule=CC[C@@]1(O)C(=O)OCc2c1cc1n(c2=O)Cc2c-1nc1ccccc1c2CCNCC(C)C meas_value=30
molecule="CC[C@@]1(O)C(=O)OCc2c1cc1n(c2=O)Cc2c-1nc1ccccc1c2CCNC [D1]" meas_value=25

====

# assay.info: MTD determination in mice (Examples 27, 36, 44)
# Format: in vivo
# measurement.context: female, mouse, in vivo; mice, monitored for 14 d; Table 9; read-out: MTD
readout.type: MTD (mg/kg)

compound="CC[C@@]1(O)C(=O)OCc2c1cc1n(c2=O)Cc2c-1nc1ccccc1c2CCNC(C)C [Belotecan, reference compound]" meas_value=15
compound="CCc1c2c(nc3ccc(OC(=O)N4CCC(N5CCCCC5)CC4)cc13)-c1cc3c(c(=O)n1C2)COC(=O)[C@]3(O)CC [Irinotecan, reference compound]" meas_value=75
